Target: human platelets in platelet-rich plasma (Homo sapiens, UniProt P05106+P08514)
Sequence (P08514 32-1039): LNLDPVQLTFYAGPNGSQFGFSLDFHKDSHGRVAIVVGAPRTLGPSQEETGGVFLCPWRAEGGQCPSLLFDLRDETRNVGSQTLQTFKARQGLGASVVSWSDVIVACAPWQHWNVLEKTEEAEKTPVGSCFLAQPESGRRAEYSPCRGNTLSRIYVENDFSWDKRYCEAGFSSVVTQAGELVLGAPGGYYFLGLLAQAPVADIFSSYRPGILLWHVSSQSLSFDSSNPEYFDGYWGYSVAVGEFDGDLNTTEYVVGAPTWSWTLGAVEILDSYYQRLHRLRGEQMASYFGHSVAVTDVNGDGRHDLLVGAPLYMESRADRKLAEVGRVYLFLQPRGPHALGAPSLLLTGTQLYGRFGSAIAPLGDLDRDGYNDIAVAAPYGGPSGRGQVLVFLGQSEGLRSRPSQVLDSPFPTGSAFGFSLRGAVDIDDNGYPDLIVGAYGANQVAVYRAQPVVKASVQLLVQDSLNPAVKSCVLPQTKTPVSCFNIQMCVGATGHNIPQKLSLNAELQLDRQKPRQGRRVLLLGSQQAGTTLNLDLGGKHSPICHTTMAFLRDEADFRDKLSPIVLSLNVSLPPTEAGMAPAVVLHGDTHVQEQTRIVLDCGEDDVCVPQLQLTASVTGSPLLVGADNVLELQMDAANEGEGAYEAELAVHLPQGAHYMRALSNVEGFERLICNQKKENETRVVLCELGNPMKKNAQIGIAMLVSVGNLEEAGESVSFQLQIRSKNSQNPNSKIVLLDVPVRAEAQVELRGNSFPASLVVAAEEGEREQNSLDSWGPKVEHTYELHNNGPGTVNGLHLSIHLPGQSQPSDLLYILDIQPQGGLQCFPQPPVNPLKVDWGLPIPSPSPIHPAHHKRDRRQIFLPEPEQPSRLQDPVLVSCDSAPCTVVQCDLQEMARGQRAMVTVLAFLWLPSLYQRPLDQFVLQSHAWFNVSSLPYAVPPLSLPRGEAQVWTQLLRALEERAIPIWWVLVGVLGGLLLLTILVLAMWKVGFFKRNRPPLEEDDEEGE
Sequence (P05106 27-788): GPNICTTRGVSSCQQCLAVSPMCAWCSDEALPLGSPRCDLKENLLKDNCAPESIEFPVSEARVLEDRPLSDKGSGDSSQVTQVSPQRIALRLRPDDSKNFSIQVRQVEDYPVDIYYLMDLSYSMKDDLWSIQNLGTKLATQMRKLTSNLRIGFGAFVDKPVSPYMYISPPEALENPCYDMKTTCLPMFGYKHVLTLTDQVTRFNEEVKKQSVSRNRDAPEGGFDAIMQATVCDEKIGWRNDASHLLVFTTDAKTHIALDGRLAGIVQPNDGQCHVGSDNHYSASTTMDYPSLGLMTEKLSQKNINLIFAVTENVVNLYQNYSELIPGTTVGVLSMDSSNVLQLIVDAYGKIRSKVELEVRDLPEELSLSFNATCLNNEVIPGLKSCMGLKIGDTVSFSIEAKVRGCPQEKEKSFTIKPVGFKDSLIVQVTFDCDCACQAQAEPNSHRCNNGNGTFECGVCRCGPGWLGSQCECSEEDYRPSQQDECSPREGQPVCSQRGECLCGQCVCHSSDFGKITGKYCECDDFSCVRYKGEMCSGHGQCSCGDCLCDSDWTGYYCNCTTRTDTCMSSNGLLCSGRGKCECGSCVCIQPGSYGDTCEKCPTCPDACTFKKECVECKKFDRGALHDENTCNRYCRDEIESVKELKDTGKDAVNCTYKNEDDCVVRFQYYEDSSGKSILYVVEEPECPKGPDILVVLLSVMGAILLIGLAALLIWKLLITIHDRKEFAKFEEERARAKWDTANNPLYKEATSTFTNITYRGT
Assay: In-vitro human platelet aggregation in platelet-rich plasma (PRP), ADP-induced
Type: cell-based
Conditions: peptide 10^-4 M
Protocol: In another assay, platelet aggregation is examined in platelet-rich plasma which also is rich in fibrinogen and other plasma proteins. The syringe is rotated carefully as blood is being drawn to mix the citrate. Platelet-rich plasma (PRP) is prepared by centrifugation at 100×g for 10 minutes at room temperature, allowing the centrifuge to coast to a stop without braking. […] 50 μl of adenosine 5'diphosphate (ADP) (50 μM) is added to the cuvettes and the aggregation is monitored for 1 minute. […]
Residues, ends and D or L forms follow the SMILES beside them.
quantity.name: inhibition at 100 µM

These solved cases illustrate the format of a correct answer.
Which measured inhibition at 100 µM belongs to COc1ccc(C[C@H](NC(=O)[C@H](CC(=O)O)NC(=O)CNC(=O)CCCCNC(=N)N)C(N)=O)cc1 , tested on human platelets in platelet-rich plasma (Homo sapiens, UniProt P05106+P08514)?
100%

Could you share what inhibition at 100 µM was measured for COc1ccc(CC(NC(=O)[C@H](CC(=O)O)NC(=O)CNC(=O)[C@@H](N)CCCNC(=N)N)C(N)=O)c2ccccc12 (some centres unmarked) , tested on human platelets in platelet-rich plasma (Homo sapiens, UniProt P05106+P08514)?
100%

Param readout= inhibition at 100 µM; system= human platelets in platelet-rich plasma (Homo sapiens, UniProt P05106+P08514); entry= N=C(N)NCCC[C@H](NC(=O)CN)C(=O)NCC(=O)N[C@@H](CC(=O)O)C(=O)N[C@@H](CO)C(=O)N1CCC[C@H]1C(N)=O [GRGDSP--NH2, reference compound] ; returns value.
23%

API: value(readout=inhibition at 100 µM, system=human platelets in platelet-rich plasma (Homo sapiens, UniProt P05106+P08514)) for record N=C(N)NCCC[C@H](N)C(=O)NCC(=O)N[C@@H](CC(=O)O)C(=O)N[C@@H](Cc1ccccc1)C(N)=O [RGDF--NH2, reference compound] (H-RGDF-NH2)
100%

Let's switch to this compound now.
Field: inhibition at 100 µM (human platelets in platelet-rich plasma (Homo sapiens, UniProt P05106+P08514)). Entry: N=C(N)NCCC[C@H](N)C(=O)NCC(=O)N[C@@H](CC(=O)O)C(=O)N[C@@H](CO)C(=O)O [RGDS, Arg-Gly-Asp-Ser, reference compound]
25%

---

As shown below, each of these compounds has a reported pIC50 value.
Target: human platelets in platelet-rich plasma (Homo sapiens, UniProt P05106+P08514)
Test: In-vitro human platelet aggregation in platelet-rich plasma (PRP), ADP-induced
Type: cell-based
Conditions: linear regression of dose response curve, read-out: IC50
Residues, ends and D or L forms follow the SMILES beside them.
Just the number, please; pIC50 means minus log10 of the concentration in mol/L.

Here's what some known entries look like.
Given the entry NC(=O)[C@H](Cc1ccccc1)NC(=O)[C@H](CC(=O)O)NC(=O)CNC(=O)[C@@H](N)CCCN=C(N)N [RGDF--NH2, reference compound] (H-RGDF-NH2) , what pIC50 was observed with human platelets in platelet-rich plasma (Homo sapiens, UniProt P05106+P08514)?
4.70

Request: pIC50, test system human platelets in platelet-rich plasma (Homo sapiens, UniProt P05106+P08514), entry COc1ccc(C[C@H](NC(=O)[C@H](CC(=O)O)NC(=O)CNC(=O)[C@H](CCCNC(=N)N)NC(C)=O)C(N)=O)cc1 [Ac--RGD(O--methyl-Tyr)--NH2] (Ac-RGDY(Me)-NH2)
4.70

# query: pIC50 | item COc1ccc(CC(NC(=O)[C@H](CC(=O)O)NC(=O)CNC(=O)[C@@H](N)CCCNC(=N)N)C(N)=O)c2ccccc12 (stereo partly drawn) | system: human platelets in platelet-rich plasma (Homo sapiens, UniProt P05106+P08514)
5.00

Write down the reported pIC50 of COc1ccc(C[C@H](NC(=O)[C@H](CC(=O)O)NC(=O)CNC(=O)CCCCNC(=N)N)C(N)=O)cc1 , test system: human platelets in platelet-rich plasma (Homo sapiens, UniProt P05106+P08514).
4.70

---
For the record COc1ccc(C[C@H](NC(=O)[C@H](CC(=O)O)NC(=O)CNC(=O)[C@@H](N)CCCNC(=N)N)C(N)=O)cc1 [RGD(O--methyl-Tyr)--NH2, Arg-Gly-Asp-(O-methyltyrosine)-amide] (H-RGDY(Me)-NH2) , what value of pIC50 is listed for human platelets in platelet-rich plasma (Homo sapiens, UniProt P05106+P08514)?
4.52

Observed pIC50 on human platelets in platelet-rich plasma (Homo sapiens, UniProt P05106+P08514) for COc1ccc(C[C@H](NC(=O)[C@H](CC(=O)O)NC(=O)CNC(=O)CCCCCNC(=N)N)C(N)=O)cc1 , please.
4.70

Reference source for all entries: patent US4857508A
